- TGT: T1, human protein C (PC) zymogen (human, UniProt P04070 43-197; P04070 200-461)
- T1 construct: Bought
- ASSAY_PROCEDURE: ELISA screen, PC-coated wells, OD450, n=2 [Continued]

>  <BINDER>
LP13 (SR16983-R3-P3-G08) (VHH, not shown: small tags and cut ends, Llama VHH purified from E. coli periplasm) VHH: QLQLVESGGGLVQAGGSLRLSCVASGTTFTIEDIGWHRQAPGKQLELVAVSRGGGNADYSDSVKGRFTISRDNAKTTVYLQMSSLKPEDTAVYYCIAKTKATTKWGRGIQVTVSS

>  <binding result>
no binding

$$$$
>  <BINDER>
SR16983-R3P2F4 (VHH) VHH: QLQLVESGGGLVQAGGSLRLSCAASGRIFGTYVMGWFRQAPGKEREFVAAVSRSTGSTYADSVKGRFTISRDDAKNMLYLQMNNLRPEDTAIYYCATRASINYNYANWPYWGQGTQVTVSS

>  <binding result>
no binding

$$$$
